- target_entity: T1, rat RXFP1 (rat, UniProt Q6R6I6 1-758)
- T1 sequence (looked up): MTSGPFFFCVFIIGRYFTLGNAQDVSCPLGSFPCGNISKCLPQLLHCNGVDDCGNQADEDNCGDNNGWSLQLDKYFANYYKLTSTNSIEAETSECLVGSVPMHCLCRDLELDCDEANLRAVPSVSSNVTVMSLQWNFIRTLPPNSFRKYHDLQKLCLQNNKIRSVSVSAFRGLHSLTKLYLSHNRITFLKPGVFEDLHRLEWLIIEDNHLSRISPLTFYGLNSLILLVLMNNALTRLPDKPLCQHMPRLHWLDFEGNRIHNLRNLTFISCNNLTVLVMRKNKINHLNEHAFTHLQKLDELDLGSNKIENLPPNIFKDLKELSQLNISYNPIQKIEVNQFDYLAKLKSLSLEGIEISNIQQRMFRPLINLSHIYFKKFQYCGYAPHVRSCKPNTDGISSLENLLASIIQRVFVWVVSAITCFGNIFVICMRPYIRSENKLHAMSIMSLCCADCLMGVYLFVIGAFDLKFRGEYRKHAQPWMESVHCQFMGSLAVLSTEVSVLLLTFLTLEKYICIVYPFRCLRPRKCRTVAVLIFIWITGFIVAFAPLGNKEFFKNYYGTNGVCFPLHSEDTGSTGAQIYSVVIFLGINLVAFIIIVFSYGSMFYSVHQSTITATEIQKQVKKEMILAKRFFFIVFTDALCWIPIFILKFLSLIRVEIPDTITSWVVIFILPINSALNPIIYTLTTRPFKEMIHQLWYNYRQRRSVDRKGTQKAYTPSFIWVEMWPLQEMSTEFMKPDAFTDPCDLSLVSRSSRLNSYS
- assay_notes: cell-based or functional assay
measured_parameter: Transient HEK293 rRXFP1 cAMP EC50 (nM)
Numbers only, in nM.

binder	Transient HEK293 rRXFP1 cAMP EC50 / nM
SEQ ID NO: 87 (Fc fusion) DKTHTCPPCPAPEAAGGPSVFLFPPKPKDTLMISRTPEVTCVVVDVSHEDPEVKFNWYVDGVEVHNAKTKPREEQYNSTYRVVSVLTVLHQDWLNGKEYKCKVSNKALAAPIEKTISKAKGQPREPQVYTLPPSRDELTKNQVSLTCLVKGFYPSDIAVEWESNGQPENNYKTTPPVLDSDGSFFLYSKLTVDKSRWQQGNVFSCSVLHEALHSHYTQKSLSLSPGKGGSDSWQEEVIKLCGRELVRAQIAICGKSTASDAAGAEAEAGARQLYSALANKCCHVGCTKRSLAQFC	10.3

With those in mind, consider the next binder.
SEQ ID NO: 98 (Fc fusion) DKTHTCPPCPAPEAAGGPSVFLFPPKPKDTLMISRTPEVTCVVVDVSHEDPEVKFNWYVDGVEVHNAKTKPREEQYNSTYRVVSVLTVLHQDWLNGKEYKCKVSNKALAAPIEKTISKAKGQPREPQVYTLPPSRDELTKNQVSLTCLVKGFYPSDIAVEWESNGQPENNYKTTPPVLDSDGSFFLYSKLTVDKSRWQQGNVFSCSVLHEALHSHYTQKSLSLSPGEGGSDSWQEEVIKLCGRELVRAQIAICGQSTASDAAGADANAGARQLYSALANKCCHVGCTKRSLAQFC yielded Transient HEK293 rRXFP1 cAMP EC50 of 29.1
